# assay_method_text: single oral dose pharmacokinetic study in healthy and NASH subjects
# Assay type: in vivo, human
# test_conditions: human, plasma, po, 200 mg, 200 mg single oral dose, NASH; read-out: AUC0-12, Geometric Mean
measurement_label: AUC(0-t)

Q: Look up and state reported AUC(0-t) for C[C@H](CCCC(C)(C)O)[C@H]1CC[C@H]2[C@@H]3CC=C4C[C@@H](OS(=O)(=O)[O-])CC[C@]4(C)[C@H]3CC[C@]12C.[Na+] [25HC3S sodium, 25-hydroxycholesterol-3-sulfate sodium]
A: 1500 ng·h/mL

###

# assay_method_text: single oral dose pharmacokinetic study in healthy and NASH subjects
# Assay type: in vivo, human
# test_conditions: human, plasma, po, 50 mg, 50 mg single oral dose, Healthy; read-out: AUCinf, Mean
measurement_label: AUC(0-inf) (ng·h/mL)
Give the value in ng·h/mL but do not write ng·h/mL after it.

Q: Using the record for C[C@H](CCCC(C)(C)O)[C@H]1CC[C@H]2[C@@H]3CC=C4C[C@@H](OS(=O)(=O)[O-])CC[C@]4(C)[C@H]3CC[C@]12C.[Na+] [25HC3S sodium, 25-hydroxycholesterol-3-sulfate sodium] , state its measured AUC(0-inf).
A: 439
